Would you kindly list IC50 for each of these compounds?
target: Gastrin/cholecystokinin type B receptor (Homo sapiens); experiment: Displacement of [177Lu] PP-F11N from CCK2R (unknown origin) transfected in A431 cells incubated for 1 hr at 4 degree C followed by compound washout with PBS buffer using Lu3+ labeled compound by Cobra-2 gamma counter method
Sequence (P32239 whole entry): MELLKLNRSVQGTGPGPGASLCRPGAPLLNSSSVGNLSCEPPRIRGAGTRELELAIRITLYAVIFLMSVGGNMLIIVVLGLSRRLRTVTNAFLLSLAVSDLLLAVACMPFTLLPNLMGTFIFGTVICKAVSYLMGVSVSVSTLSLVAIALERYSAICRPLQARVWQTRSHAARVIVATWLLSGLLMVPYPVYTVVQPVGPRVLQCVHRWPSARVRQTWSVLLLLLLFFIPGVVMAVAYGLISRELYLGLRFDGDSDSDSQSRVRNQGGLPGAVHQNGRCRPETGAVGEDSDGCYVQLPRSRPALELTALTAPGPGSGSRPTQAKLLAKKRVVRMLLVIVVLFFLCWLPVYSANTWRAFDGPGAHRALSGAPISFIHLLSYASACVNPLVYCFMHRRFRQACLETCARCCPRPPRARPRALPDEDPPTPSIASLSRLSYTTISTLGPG
*1 amine or outer side, *2 acyl side, *3 side chain or, on linkers, in order; H or OH if unused. Where a SMILES comes first, the peptide text is derived from it. [ ]: non-standard residue; d: D form. The star is where a group is joined. X2 = CCCC[C@@H](C(=O)[*:2])n1cc([C@H](Cc2c[nH]c3ccccc23)N[*:1])nn1; X4 = C[C@H](N[*:1])c1cn([C@@H](Cc2ccc(O)cc2)C(=O)[*:2])nn1; DOTA = O=C(O)CN1CCN(CC(=O)O)CCN(CC(=O)*)CCN(CC(=O)O)CC1; X3 = O=C([C@H](Cc1c[nH]c2ccccc12)n1cc(CN[*:1])nn1)[*:2]; X1 = O=C(Cn1cc([C@H](Cc2ccc(O)cc2)N[*:1])nn1)[*:2]; Nle = CCCC[C@H](N)C(=O)O
# value in nM; strip the unit string

Query block: Field request: IC50 | item: CCCC[C@@H](C(=O)N[C@@H](CC(=O)O)C(=O)N[C@@H](Cc1ccccc1)C(N)=O)n1cc([C@H](Cc2c[nH]c3ccccc23)NC(=O)CNC(=O)[C@H](Cc2ccc(O)cc2)NC(=O)[C@H](C)NC(=O)[C@@H](CCC(=O)O)NC(=O)CN2CCN(CC(=O)O)CCN(CC(=O)O)CCN(CC(=O)O)CC2)nn1 ({DOTA}-[dE]AYG[X2]DF-NH2)
Result block: 25.4

Query block: Cool, now CCCC[C@H](NC(=O)[C@H](Cc1c[nH]c2ccccc12)NC(=O)Cn1cc([C@H](Cc2ccc(O)cc2)NC(=O)[C@H](C)NC(=O)[C@@H](CCC(=O)O)NC(=O)CN2CCN(CC(=O)O)CCN(CC(=O)O)CCN(CC(=O)O)CC2)nn1)C(=O)N[C@@H](CC(=O)O)C(=O)N[C@@H](Cc1ccccc1)C(N)=O ({DOTA}-[dE]A[X1]W[Nle]DF-NH2)
Result block: 1.7

Query block: And what about the compound CCCC[C@H](NC(=O)[C@H](Cc1c[nH]c2ccccc12)NC(=O)CNC(=O)[C@H](Cc1ccc(O)cc1)n1cc([C@H](C)NC(=O)[C@@H](CCC(=O)O)NC(=O)CN2CCN(CC(=O)O)CCN(CC(=O)O)CCN(CC(=O)O)CC2)nn1)C(=O)N[C@@H](CC(=O)O)C(=O)N[C@@H](Cc1ccccc1)C(N)=O ({DOTA}-[dE][X4]GW[Nle]DF-NH2) ?
Result block: 20.9

Query block: Now this one: `CCCC[C@H](NC(=O)[C@H](Cc1c[nH]c2ccccc12)NC(=O)CNC(=O)[C@H](Cc1ccc(O)cc1)NC(=O)[C@H](C)NC(=O)[C@@H](CCC(=O)O)NC(=O)CN1CCN(CC(=O)O)CCN(CC(=O)O)CCN(CC(=O)O)CC1)C(=O)N[C@@H](CC(=O)O)C(=O)N[C@@H](Cc1ccccc1)c1c[nH]nn1`
Result block: 200

Query block: Queued: CCCC[C@H](NC(=O)[C@H](Cc1c[nH]c2ccccc12)n1cc(CNC(=O)[C@H](Cc2ccc(O)cc2)NC(=O)[C@H](C)NC(=O)[C@@H](CCC(=O)O)NC(=O)CN2CCN(CC(=O)O)CCN(CC(=O)O)CCN(CC(=O)O)CC2)nn1)C(=O)N[C@@H](CC(=O)O)C(=O)N[C@@H](Cc1ccccc1)C(N)=O ({DOTA}-[dE]AY[X3][Nle]DF-NH2)
Result block: 15.6

Query block: Please do the same for `CCCC[C@H](NC(=O)[C@H](Cc1c[nH]c2ccccc12)NC(=O)CCNC(=O)[C@H](Cc1ccc(O)cc1)NC(=O)[C@H](C)NC(=O)[C@@H](CCC(=O)O)NC(=O)CN1CCN(CC(=O)O)CCN(CC(=O)O)CCN(CC(=O)O)CC1)C(=O)N[C@@H](CC(=O)O)C(=O)N[C@@H](Cc1ccccc1)C(N)=O` as well.
Result block: 18.8
